src = patent US20110190351A1

Target: GSK3beta (Homo sapiens, UniProt P49841)
Sequence (P49841 whole entry): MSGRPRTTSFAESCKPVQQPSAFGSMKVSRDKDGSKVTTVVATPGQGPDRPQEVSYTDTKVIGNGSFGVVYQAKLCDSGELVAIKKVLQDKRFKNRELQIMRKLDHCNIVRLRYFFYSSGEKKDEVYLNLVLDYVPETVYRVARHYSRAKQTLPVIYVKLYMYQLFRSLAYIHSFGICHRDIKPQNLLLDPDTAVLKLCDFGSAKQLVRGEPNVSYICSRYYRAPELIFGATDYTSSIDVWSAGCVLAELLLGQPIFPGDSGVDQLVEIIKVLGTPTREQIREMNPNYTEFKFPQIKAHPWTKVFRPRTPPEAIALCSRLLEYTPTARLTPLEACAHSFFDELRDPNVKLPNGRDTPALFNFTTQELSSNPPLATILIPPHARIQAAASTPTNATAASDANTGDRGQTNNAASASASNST
pIC50: −log10 of the molar value.
Criterion: pIC50 meeting or surpassing 6. Met: criterion met. Not met: criterion not met.

| molecule | group |
| --- | --- |
| O=C(NCCc1ncc[nH]1)c1ccc(O)c2[nH]c(-c3cccs3)nc12 [Example 62] | criterion met |
| O=C(Nc1cc(O)ccc1C(=O)NC1CCCNC1)c1cccs1 (stereo not drawn) [Example 122] | criterion not met |
| O=C(N[C@@H](CO)Cc1c[nH]cn1)c1ccc(O)c2[nH]c(-c3cccs3)nc12 [Example 17] | criterion met |
| NC(=O)c1ccc(OCCNC(=O)c2ccc(O)c3[nH]c(-c4cccs4)nc23)nc1 [Example 49] | criterion met |
| O=C(NCC(O)CO)c1ccc(O)c2nc(C3CC3)[nH]c12 (stereo not drawn) [Example 97] | criterion met |
| COC(=O)C(CO)NC(=O)c1ccc(O)c2[nH]c(-c3cccs3)nc12 (stereo not drawn) [Example 15] | criterion met |
| O=C(Nc1ccc(O)cc1)c1ccc(O)c2[nH]c(C3CC3)nc12 [Example 91] | criterion met |
| O=C(NCCCn1ccnc1)c1ccc(O)c2[nH]c(-c3cccs3)nc12 [Example 76] | criterion met |
| O=C(NCc1ccc(O)c(O)c1)c1ccc(O)c2[nH]c(-c3cccs3)nc12 [Example 37] | criterion met |
| O=C(CCc1cnc[nH]1)Nc1ccc(O)c2[nH]c(-c3cccs3)nc12 [Example 121] | criterion not met |
| O=C(N[C@@H](Cc1cnc[nH]1)C(=O)O)c1ccc(O)c2[nH]c(-c3cccs3)nc12 [Example 71] | criterion met |
| O=C(NCCNS(=O)(=O)c1ccncc1)c1ccc(O)c2[nH]c(-c3cccs3)nc12 [Example 40] | criterion met |
